Reference for the values: ChEMBL document CHEMBL3351889

target: Transient receptor potential cation channel subfamily M member 8 (Homo sapiens, UniProt Q7Z2W7); assay: Antagonist activity at human TRPM8 expressed in HEK293 cells assessed as inhibition of menthol induced Ca2+ influx
Sequence (Q7Z2W7 whole entry): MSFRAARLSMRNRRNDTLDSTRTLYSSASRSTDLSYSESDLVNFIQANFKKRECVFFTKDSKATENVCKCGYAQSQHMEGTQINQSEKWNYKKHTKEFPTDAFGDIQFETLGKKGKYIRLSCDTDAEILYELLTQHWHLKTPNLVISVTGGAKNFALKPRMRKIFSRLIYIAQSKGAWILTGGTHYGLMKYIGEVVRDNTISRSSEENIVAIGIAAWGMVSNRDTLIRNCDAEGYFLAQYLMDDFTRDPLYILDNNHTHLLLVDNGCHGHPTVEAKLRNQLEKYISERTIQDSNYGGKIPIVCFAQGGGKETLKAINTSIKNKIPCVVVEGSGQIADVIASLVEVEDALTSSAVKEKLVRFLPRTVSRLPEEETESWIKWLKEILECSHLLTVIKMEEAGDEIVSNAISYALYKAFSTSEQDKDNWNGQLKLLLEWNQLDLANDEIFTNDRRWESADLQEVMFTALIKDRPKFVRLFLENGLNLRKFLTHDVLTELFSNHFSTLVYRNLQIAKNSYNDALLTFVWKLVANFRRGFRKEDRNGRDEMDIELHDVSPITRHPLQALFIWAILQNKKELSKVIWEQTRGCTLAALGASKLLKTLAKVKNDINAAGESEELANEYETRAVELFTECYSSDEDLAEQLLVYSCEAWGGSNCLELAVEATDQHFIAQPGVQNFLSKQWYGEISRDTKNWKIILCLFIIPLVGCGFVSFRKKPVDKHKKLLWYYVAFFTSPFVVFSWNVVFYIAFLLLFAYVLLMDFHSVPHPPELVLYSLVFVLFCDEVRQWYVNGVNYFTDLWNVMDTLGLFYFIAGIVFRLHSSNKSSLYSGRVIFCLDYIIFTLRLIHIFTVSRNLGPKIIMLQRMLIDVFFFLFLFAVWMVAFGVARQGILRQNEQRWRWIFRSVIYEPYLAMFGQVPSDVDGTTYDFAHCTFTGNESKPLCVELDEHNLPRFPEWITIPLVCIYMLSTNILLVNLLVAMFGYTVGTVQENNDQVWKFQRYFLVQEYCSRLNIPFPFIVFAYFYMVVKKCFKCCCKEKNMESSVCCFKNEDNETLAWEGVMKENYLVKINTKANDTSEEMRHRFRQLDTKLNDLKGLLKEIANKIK
Property: IC50 (nM)
Response body: numeric value in nM, unit text excluded.

Field: example entries. Status: answers known.
[
  {
    "Substance smiles": "CN(C)C(=O)c1ccc(S(=O)(=O)N(Cc2ccccc2)c2ncc(C(F)(F)F)cc2Cl)cc1",
    "Property": "IC50",
    "Test value": 67
  },
  {
    "Substance smiles": "O=C(O)c1ccc(S(=O)(=O)N(Cc2ccccc2)c2ncc(C(F)(F)F)cc2Cl)cc1",
    "Property": "IC50",
    "Test value": 61
  }
]

Alright, here's another molecule for you.
Any idea what IC50 was measured for `O=C(O)c1ccc(S(=O)(=O)N(Cc2ccccc2OC(F)(F)F)c2ncc(C(F)(F)F)cc2Cl)cc1` ? 96
